# Test system: U251 CNS
# protocol.text: NCI-60 one-dose screen, 48 h (100 = growth as untreated, 0 = no growth, -100 = all killed)
# test.conditions: 10 µM unless noted
About 83,000 compounds went through this panel and 20% of them were active in at least one assay; those are over-represented in the sample as a whole.
Record met whenever growth is at 60% or higher; record not met when lower.

1. COc1cc2c(/C=C3/C(=O)Nc4ccc(O)cc43)c(Cl)n(Cc3cc(OC)c(OC)c(OC)c3)c2cc1C
not met
2. O=C(Nc1cccc(-n2ccc3c(NC(=O)c4ccccc4)nccc32)c1)Nc1ccc(Cl)c(C(F)(F)F)c1
not met
3. CC1(C)CC(=O)C2=C(C1)OC1=C(C(=O)CC(C)(C)C1)C2c1ccc(OCc2cn(-c3ccc(F)cc3F)nn2)cc1
met
4. COc1ccc2c(-c3ccc(F)cc3)c(C#N)c(=NC(C)=O)oc2c1
not met
5. O=C(Nc1cccc(-n2ccc3c(NC(=O)c4ccccc4)nccc32)c1)Nc1cc(C(F)(F)F)cc(C(F)(F)F)c1
not met

Query: # check: growth of CCN(CC)CC(=O)Nc1c(C)cccc1C is greater than or equal to 60%
Result: met

Query: Could you please find out whether CCOC(=O)C1CSC(C)(C(=O)OCC)N1 (stereo not drawn) has growth that meets 60% or exceeds it?
Result: met

----------
# Tested on: HCC-2998 colon
# protocol.text: NCI-60 one-dose screen, 48 h (100 = growth as untreated, 0 = no growth, -100 = all killed)
# test.conditions: 10 µM unless noted
# Description: Growth inhibition of the HCC-2998 human tumor cell line is measured as a screen for anti-cancer activity. Cells are grown in 96 well plates and exposed to the test compound for 48 hours. Compounds are tested at a single concentration, which is 10^-5 M for most compounds. The reported endpoint is percent growth (GI% or GIPRCNT), where numbers from 0 - 100% represent growth inhibition, and numbers from -100% - 0 represent cell death. For example, a value of 40 represents 60% growth inhibition. […]
About 83,000 compounds went through this panel and 20% of them were active in at least one assay; those are over-represented in the sample as a whole.
recorded.metric: growth (%)
Give a bare numeral; the unit % is implied.

Look over these answered cases.
1) CCC1S/C(=N\N=C(/C)c2ccco2)N(c2ccccc2)C1=O (stereo not given)
112
2) COc1cccc(-c2nc3sccn3c2-c2ccnc(NCCNC(=O)c3ccccc3)n2)c1
114
3) CC(=O)Oc1ccc(C(OC(C)=O)OC(C)=O)cc1
97.2
4) FC(F)(F)c1cn(CCN2CCOCC2)c2ncnc(Cl)c12
75.2
5) O=c1c2ccccc2sc2c(NCCN3CCOCC3)nc3ccccc3c12
54.2
6) CCCC(C)(C)COC(=O)c1cccc(N)c1
96.9
7) CCOC(=O)c1noc2c1CCc1c-2cn(Cc2ccc(OC)cc2)c1-c1cc(OC)c(OC)c(OC)c1
39.6
8) O=C(CSc1nnc(-c2cc3c([nH]c4ccccc43)c(-c3cccc(O)c3)n2)n1-c1ccccc1)c1ccccc1
96

Query: Input Cc1ccc[n+](CC(=O)c2cccc3ccccc23)c1 , output reported growth.
Result: 104

Query: Report measured growth; entry is Nc1ncnc2c1c(C(F)(F)F)cn2[C@@H]1O[C@H](CO)[C@@H](O)[C@H]1O
Result: 7.21

----------
# System: SK-MEL-2 melanoma
# protocol.text: NCI-60 one-dose screen, 48 h (100 = growth as untreated, 0 = no growth, -100 = all killed)
# test.conditions: 10 µM unless noted
This is part of a sample that, as a whole, favours compounds with a hit. Of some 83,000 tested, about 20% had one in any assay.
recorded.metric: growth (%)
Supply the numeric figure in %, leaving out any unit text.

Some solved cases for reference:
1) COc1ccc(-c2nn(-c3ccc(NC(=O)Nc4ccc(Cl)c(Cl)c4)cc3)cc2-c2ccncc2)cc1Cl
-35.5
2) Nc1ncnc2c1ccn2-c1cccc(NC(=O)c2cccc(C(F)(F)F)c2)c1
80.6
3) COc1ccc(/C(Cl)=N/N=C(\Cl)c2cc(OC)c(OC)c(OC)c2)cc1OC(C)=O
92.3
4) COc1cccc(C2CC(c3cc(OC)c(OC)c(OC)c3)=NN2)c1 (centres undefined)
94
5) C=CCn1c(SCC(=O)Nc2ccc(C(=O)/C=C/c3cc(OC)c(OC)c(OC)c3)cc2)nnc1-c1ccc(OC)cc1
15.1
6) COc1ccc2c(c1)nnn1c3ncccc3c(N=O)c21
-65.9
7) COc1ccc(-c2nnc(SCC(=O)Nc3ccc(C(=O)/C=C/c4ccc(Cl)cc4)cc3)o2)cc1OC
72
8) CC1=C2C(=C[C@@](C)(CO)[C@@H]2OC(=O)N(C)CCN(C)C(=O)OC(C)(C)C)C(=O)[C@](C)(O)C12CC2
71.4

Please turn your attention to the following entry.
Query: For C=CCOc1ccc(/C(Cl)=N/N=C(\Cl)c2cc(OC)c(OC)c(OC)c2)cc1 , write its growth.
Result: 71.8

----------
# Tested on: T-47D breast
# protocol.text: NCI-60 one-dose screen, 48 h
# test.conditions: 10 µM unless noted
# Method: Growth inhibition of the T-47D human tumor cell line is measured as a screen for anti-cancer activity. Cells are grown in 96 well plates and exposed to the test compound for 48 hours. Compounds are tested at a single concentration, which is 10^-5 M for most compounds. The reported endpoint is percent growth (GI% or GIPRCNT), where numbers from 0 - 100% represent growth inhibition, and numbers from -100% - 0 represent cell death. For example, a value of 40 represents 60% growth inhibition. […]
Compounds without any hit were thinned out: in the full panel of roughly 83,000, 20% have a hit. The source made the active and inactive calls. Rule for the calls: active = growth percent below 10; inactive = the rest.
Select the correct class. Options are active, inactive and nothing else.

Please review the entries below; each comes with its answer.
1. CCOC(=O)c1noc2c1CCc1cn(Cc3cc(OC)cc(OC)c3)cc1-2
inactive
2. NC(CCCC(N)C(=O)c1ccccc1)C(=O)O (stereo unspecified)
inactive

Query: For CCC1S/C(=N\N=C(/C)c2cc3ccccc3o2)N(c2ccccc2)C1=O (stereo unspecified) , what call appears in the results of this test?
Result: inactive

Query: Which outcome was entered for the compound O=C(O)c1ccc(-n2cc(/C=N/Nc3ccc(Cl)cc3)c(-c3ccc(F)c(F)c3)n2)cc1 in this test?
Result: inactive

Query: How was Fc1cccc(F)c1C#Cc1ccc2cccnc2c1 classified in this test?
Result: inactive

Query: // outcome(item) with item = COC(=O)c1oc2c(C(=O)/C=C/c3ccc(OC)cc3)c(OCCN3CCOCC3)ccc2c1C
Result: inactive

----------
# Tested on: EKVX NSCLC
# protocol.text: NCI-60 one-dose screen, 48 h
# test.conditions: 10 µM unless noted
This is part of a sample that, as a whole, favours compounds with a hit. Of some 83,000 tested, about 20% had one in any assay. Calls of active or inactive are those of the source. Rule for the calls: active = growth percent below 10; inactive = the rest.
// one of active, inactive, no free text

1. C=C1C(=O)O[C@H]2[C@H]1CC/C(COC(=O)c1cc(OC)c(OC)c(OC)c1)=C\CC[C@@]1(C)O[C@@H]21
active
2. COc1cc(-c2nc3ccccc3s2)ccc1OCc1nc2n(n1)S(=O)(=O)c1ccccc1N2c1ccccc1
inactive
3. Cc1ccc(NC(=O)CN2CCOCC2)cc1Cl
inactive

Query: Could you kindly confirm the outcome this assay logged for CC1=C[S+](c2ccccc2)c2cccc3cc4ccccc4c1c23 (stereo not given) ?
Result: active

Query: For Nc1nc(=S)ss1 , what call appears in the results of this test?
Result: inactive

Query: Hi, sorry to bother you, what did the test record for CCC(N)(C(=O)O)c1ccc(F)cc1 (stereo not given) ?
Result: inactive

Query: Please let me know the test result on file for O=C(Nc1ccc(-n2ccc3c(NC(=O)c4ccccc4)nccc32)cc1)Nc1ccc(Cl)c(Cl)c1 .
Result: inactive

Query: Please let me know the test result on file for COc1ccccc1N1CCN(CC(O)COc2c(Br)c(Br)c(Br)c3c2OC(C)(C)C3)CC1 (stereo not given) .
Result: inactive

Query: State the result this test recorded for c1ccc(-c2nc3sc(C(c4ccccc4)c4ccccc4)nn3c2-c2ccccc2)cc1 .
Result: inactive

Query: Could you please tell me the result logged for C=C1c2c(Cl)ccc(O)c2C(O)=C2C(=O)[C@]3(O)C(O)=C(C(N)=O)C(=O)[C@@H](N(C)C)[C@@H]3[C@@H](O)[C@H]12 in this assay?
Result: inactive

Query: What outcome does the record of this test show for Nc1ncnc2c1ccn2-c1cccc(NC(=O)c2cccc(C(F)(F)F)c2)c1 ?
Result: inactive

Query: Just curious, what result did COc1cc(/C=C2/Oc3cc4occc4c(OC)c3C2=O)ccc1OCC(=O)Nc1ccncc1 get here?
Result: inactive

Query: What classification did COc1ccc(-c2nn(-c3ccc(NC(=O)c4ccc(Cl)c(C(F)(F)F)c4)cc3)cc2-c2ccncc2)cc1Cl end up with in this test?
Result: inactive

Query: For this compound, state the assay outcome: CC(=O)N1N=C2N(Cc3ccccc3)C(=O)c3c(sc4c3CCCC4)N2C1c1cn(-c2ccccc2)nc1-c1ccc(Cl)cc1 (stereo not given)
Result: inactive

Query: Recorded call for CCCC(=O)Oc1ccc(/C(=C(\C)c2ccc(OC)cc2)c2ccc(OCCN3CCCCC3)cc2)cc1 ?
Result: inactive

Query: Hi team, can someone confirm the assay call for COc1cc(NC(C)CCCN2C(=O)c3ccccc3C2=O)c2nccc(C)c2c1OC (stereo not given) ?
Result: inactive

Query: Hey, what did the test say about CC(C)(c1ccc(OCC(O)CNCc2ccco2)cc1)c1ccc(OCC(O)CNCc2ccco2)cc1 (stereo not given) ?
Result: inactive

Recorded values, source PubChem BioAssay (NCI).
